Reported emission maximum values for the following compounds.
test: solvent given as SMILES; conditions: in c1ccncc1
RESULT_TYPE: emission maximum (nm)

>>> observed("CC1CC=C(c2ccc(-c3ccc(C=O)s3)s2)CC1 (stereo unspecified)")
483
>>> observed("OC1(c2ccc(-c3cccs3)s2)CCC1")
468
>>> observed("O=Cc1ccc(-c2ccc(C3=CCCCC3)s2)s1")
483
>>> observed("CN(C)c1ccc(/C=C/C=C2\\CC/C(=C\\C=C\\c3ccc(N(C)C)cc3)C2=O)cc1")
681
>>> observed("CN(C)c1ccc(/C=C/c2cc[n+](CCC[n+]3ccc(/C=C/c4ccc(N(C)C)cc4)cc3)cc2)cc1")
598
>>> observed("CC1CCC(O)(c2ccc(-c3cccs3)s2)CC1 (stereo unspecified)")
416
